Tested on: Penicillium decumbens
TEST: Inhibition of Penicillium decumbens alpha-rhamnosidase at 10 mM
The source made the active and inactive calls. No cut-off for these calls is given here.
PROPERTY LABEL: Activity

>>> df
                                   molecule          system_tested  property_label    result
0  C[C@H]1C[C@H](O)[C@@H]2O[C@@H]2[C@H]1O (relative stereo)  Penicillium decumbens        Activity  inactive
1  Cc1cccc(O)c1C(=O)O[C@H]1[C@H](O)[C@@H](O)[C@@H](C)C[C@@H]1O (relative stereo)  Penicillium decumbens        Activity  inactive
2  C[C@H]1C[C@H](O)[C@H](O)C[C@H]1O (relative stereo)  Penicillium decumbens        Activity  inactive
3  C[C@H]1C[C@H](O)[C@H](O)C[C@@H]1O (relative stereo)  Penicillium decumbens        Activity  inactive
4  C[C@H]1C[C@H](O)[C@@H](O)C[C@H]1O (relative stereo)  Penicillium decumbens        Activity  inactive
5  C[C@H]1C[C@@H](O)[C@@H](O)C[C@@H]1O (relative stereo)  Penicillium decumbens        Activity  inactive
6                  C[C@H]1C[C@@H](O)C=CC1=O  Penicillium decumbens        Activity  inactive
